biological target: hNTS2 receptor (Homo sapiens); construct: membranes prepared from them; assay: Competitive radioligand binding assay on the hNTS2 receptor; settings: ratio IC50 for NTS1 : IC50 for NTS2
Where a SMILES comes first, the peptide text is derived from it. Bridges are numbered along the chain shown (N, C = ends). [ ]: non-standard residue; d: D form. Dab = NCC[C@H](N)C(=O)O; Dap = NC[C@H](N)C(=O)O
measure_name: Selectivity

compound="CC(C)C[C@H](NC(=O)[C@H](Cc1ccc(O)cc1)NC(=O)[C@@H]1CC(=O)NC[C@H](N)C(=O)N[C@@H](CCCCN)C(=O)N[C@@H](CCCCN)C(=O)N1)C(=O)O [compound 94, c[DapKKD]YL] (H-[Dap]KKDYL-OH; lactam 1-4)" target="hNTS2 receptor (Homo sapiens)" reported_result=>4.4
compound="CC(C)C[C@H](NC(=O)[C@H](Cc1ccc(O)cc1)NC(=O)[C@@H]1CC(=O)NCC[C@H](N)C(=O)N[C@@H](CCCCN)C(=O)N[C@@H](CCCCN)C(=O)N1)C(=O)O [compound 95, c[DabKKD]YL] (H-[Dab]KKDYL-OH; lactam 1-4)" target="hNTS2 receptor (Homo sapiens)" reported_result=>11.4

* * *

Documented IC50 across a set of molecules
target: hNTS2 receptor (Homo sapiens); construct: membranes prepared from them; experiment: Competitive radioligand binding assay on the hNTS2 receptor; settings: displacement of 125I-[Tyr3]-NT, membranes of 1321N1 cells expressing hNTS2; read-out: IC50 NTS2 (converted)
Where a SMILES comes first, the peptide text is derived from it. Bridges are numbered along the chain shown (N, C = ends). [ ]: non-standard residue; d: D form. Ala(cHept) = N[C@@H](CC1CCCCCC1)C(=O)O; tBuAla = CC(C)(C)C[C@H](N)C(=O)O; AllylGly = C=CC[C@H](N)C(=O)O; Chg = N[C@H](C(=O)O)C1CCCCC1; Pen = CC(C)(S)[C@H](N)C(=O)O; Nva = CCC[C@H](N)C(=O)O; Dap = NC[C@H](N)C(=O)O
measure_name: IC50

molecule="NCCCC[C@@H]1NC(=O)[C@H](CCCCN)NC(=O)[C@@H](N)CC=CC[C@@H](C(=O)N[C@@H](Cc2ccc(O)cc2)C(=O)N[C@H](C(=O)O)C2CCCCC2)NC1=O [compound 30, c[G(All)KKG(All)]YChG] (H-[AllylGly]KK[AllylGly]Y[Chg]-OH; staple 1-4)" reported_result="955 nM"
molecule="NCCCC[C@@H]1NC(=O)[C@H](CCCCN)NC(=O)[C@@H](N)CC=CC[C@@H](C(=O)N[C@@H](Cc2ccc(O)cc2)C(=O)N[C@@H](CC2CCCCCC2)C(=O)O)NC1=O [compound 68, c[G(All)KKG(All)]YA(cycloheptyl)] (H-[AllylGly]KK[AllylGly]Y[Ala(cHept)]-OH; staple 1-4)" reported_result="6.85 nM"
molecule="CC(C)C[C@H](NC(=O)[C@H](Cc1ccc(O)cc1)NC(=O)[C@@H]1CC=CC[C@H](N)C(=O)NCC(=O)N[C@@H](CCCCN)C(=O)N1)C(=O)O [compound 87, c[G(All)GKG(All)]YL] (H-[AllylGly]GK[AllylGly]YL-OH; staple 1-4)" reported_result="516 nM"
molecule="CC(C)C[C@H](NC(=O)[C@H](Cc1ccc(O)cc1)NC(=O)[C@@H]1CC=CC[C@H](N)C(=O)N[C@@H](CN)C(=O)N[C@@H](CCCCN)C(=O)N1)C(=O)O [compound 81, c[G(All)DapKG(All)]YL] (H-[AllylGly][Dap]K[AllylGly]YL-OH; staple 1-4)" reported_result="180 nM"
molecule="CC(C)(C)C[C@H](NC(=O)[C@H](Cc1ccc(O)cc1)NC(=O)[C@@H]1CC=CC[C@H](N)C(=O)N[C@@H](CCCCN)C(=O)N[C@@H](CCCCN)C(=O)N1)C(=O)O [compound 49, c[G(All)KKG(All)]YNpg] (H-[AllylGly]KK[AllylGly]Y[tBuAla]-OH; staple 1-4)" reported_result="44.4 nM"
molecule="CCC[C@@H]1NC(=O)[C@@H](N)CC=CC[C@@H](C(=O)N[C@@H](Cc2ccc(O)cc2)C(=O)N[C@@H](CC(C)C)C(=O)O)NC(=O)[C@H](CCCCN)NC1=O [compound 86, c[G(All)NvaKG(All)]YL] (H-[AllylGly][Nva]K[AllylGly]YL-OH; staple 1-4)" reported_result="743 nM"
molecule="CC(C)C[C@H](NC(=O)[C@H](Cc1ccc(O)cc1)NC(=O)[C@@H]1CSSC(C)(C)[C@H](N)C(=O)N[C@@H](CCCCN)C(=O)N[C@@H](CCCCN)C(=O)N1)C(=O)O [compound 154, c[PenKKC]YL] (H-[Pen]KKCYL-OH; disulfide 1-4)" reported_result="1200 nM"

* * *

Documented IC50 across a set of molecules
molecular target: hNTS2 receptor (Homo sapiens); construct: membranes prepared from them; test: Competitive radioligand binding assay on the hNTS2 receptor; conditions: displacement of 125I-[Tyr3]-NT, membranes of 1321N1 cells expressing hNTS2; read-out: IC50 NTS2 (converted)
Where a SMILES comes first, the peptide text is derived from it. Bridges are numbered along the chain shown (N, C = ends). [ ]: non-standard residue; d: D form. AllylGly = C=CC[C@H](N)C(=O)O; Cba = N[C@@H](CC1CCC1)C(=O)O; R5 = C=CCCC[C@@](C)(N)C(=O)O
measure_name: IC50 (nM)

molecule="NCCCC[C@@H]1NC(=O)[C@H](CCCCN)NC(=O)[C@@H](N)CC=CC[C@@H](C(=O)N[C@@H](Cc2ccc(O)cc2)C(=O)N[C@@H](CC2CCC2)C(=O)O)NC1=O [compound 66, c[G(All)KKG(All)]YA(cyclobutyl)] (H-[AllylGly]KK[AllylGly]Y[Cba]-OH; staple 1-4)" measure_name=IC50 reported_result=27.2
molecule="CC(C)C[C@H](NC(=O)[C@H](Cc1ccc(O)cc1)NC(=O)[C@@H]1CC=CCCC[C@@](C)(N)C(=O)N[C@@H](CCCCN)C(=O)N[C@@H](CCCCN)C(=O)N1)C(=O)O [compound 90, c[G*(alpha-Me-(4-Pentenyl))KKG(All)]YL] (H-[R5]KK[AllylGly]YL-OH; staple 1-4)" measure_name=IC50 reported_result=76.9
molecule="CC(C)C[C@H](NC(=O)[C@H](Cc1ccc(O)cc1)NC(=O)[C@@H]1CSSC[C@H](N)C(=O)N[C@@H](CCCCN)C(=O)N[C@@H](CCCCN)C(=O)N1)C(=O)O [compound 152, c[CKKC]YL] (H-CKKCYL-OH; disulfide 1-4)" measure_name=IC50 reported_result=1400

* * *

Documented Selectivity across a set of molecules
target: hNTS2 receptor (Homo sapiens, UniProt O95665); construct: membranes prepared from them; assay: Competitive radioligand binding assay on the hNTS2 receptor; details: ratio IC50 for NTS1 : IC50 for NTS2
Sequence (O95665 whole entry): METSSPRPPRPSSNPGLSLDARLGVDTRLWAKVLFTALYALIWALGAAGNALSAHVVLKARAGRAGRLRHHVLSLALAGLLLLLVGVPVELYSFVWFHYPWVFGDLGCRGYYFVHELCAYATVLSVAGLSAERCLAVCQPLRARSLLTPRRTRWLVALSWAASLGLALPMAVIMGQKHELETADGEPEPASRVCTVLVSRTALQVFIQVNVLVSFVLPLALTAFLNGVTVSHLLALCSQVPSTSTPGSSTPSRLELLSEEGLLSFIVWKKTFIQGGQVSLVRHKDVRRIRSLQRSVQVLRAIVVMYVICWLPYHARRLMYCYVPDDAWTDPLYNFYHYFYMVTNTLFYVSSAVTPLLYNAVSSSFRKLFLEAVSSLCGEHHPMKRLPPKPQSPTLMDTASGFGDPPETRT
*1 amine or outer side, *2 acyl side, *3 side chain or, on linkers, in order; H or OH if unused. Where a SMILES comes first, the peptide text is derived from it. Bridges are numbered along the chain shown (N, C = ends). [ ]: non-standard residue; d: D form. Ala(9-anthryl) = N[C@@H](Cc1c2ccccc2cc2ccccc12)C(=O)O; Bpa = N[C@@H](Cc1ccc(C(=O)c2ccccc2)cc1)C(=O)O; X2 = O=C([C@H](Cc1cc(F)c(F)cc1F)N[*:1])[*:2]; Phe(4-CN) = N#Cc1ccc(C[C@H](N)C(=O)O)cc1; 2Nal = N[C@@H](Cc1ccc2ccccc2c1)C(=O)O; Hpg = N[C@H](C(=O)O)c1ccc(O)cc1; AllylGly = C=CC[C@H](N)C(=O)O
measure_name: Selectivity

molecule="NCCCC[C@@H]1NC(=O)[C@H](CCCCN)NC(=O)[C@@H](N)CC=CC[C@@H](C(=O)N[C@@H](Cc2ccc(O)cc2)C(=O)N[C@@H](Cc2cc(F)c(F)cc2F)C(=O)O)NC1=O [compound 63, c[G(All)KKG(All)]YF(2,4,5-trifluoro)] (H-[AllylGly]KK[AllylGly]Y[X2]-OH; staple 1-4)" limit_operator=> reported_result=273
molecule="CC(C)C[C@H](NC(=O)[C@H](Cc1ccccc1)NC(=O)[C@@H]1CC=CC[C@H](N)C(=O)N[C@@H](CCCCN)C(=O)N[C@@H](CCCCN)C(=O)N1)C(=O)O [compound 76, c[G(All)KKG(All)FL] (H-[AllylGly]KK[AllylGly]FL-OH; staple 1-4)" limit_operator=> reported_result=1175
molecule="CC(C)C[C@H](NC(=O)[C@@H](NC(=O)[C@@H]1CC=CC[C@H](N)C(=O)N[C@@H](CCCCN)C(=O)N[C@@H](CCCCN)C(=O)N1)c1ccc(O)cc1)C(=O)O [compound 125] (H-[AllylGly]KK[AllylGly][Hpg]L-OH; staple 1-4)" limit_operator== reported_result=56
molecule="CC(C)C[C@H](NC(=O)[C@H](Cc1ccc2ccccc2c1)NC(=O)[C@@H]1CC=CC[C@H](N)C(=O)N[C@@H](CCCCN)C(=O)N[C@@H](CCCCN)C(=O)N1)C(=O)O [compound 112, c[G(All)KKG(All)]A(naphtyl)L] (H-[AllylGly]KK[AllylGly][2Nal]L-OH; staple 1-4)" limit_operator=> reported_result=1196
molecule="CC(C)C[C@H](NC(=O)[C@H](Cc1c2ccccc2cc2ccccc12)NC(=O)[C@@H]1CC=CC[C@H](N)C(=O)N[C@@H](CCCCN)C(=O)N[C@@H](CCCCN)C(=O)N1)C(=O)O [compound 162, c[G(All)KKG(All)]A(anthryl-) L] (H-[AllylGly]KK[AllylGly][Ala(9-anthryl)]L-OH; staple 1-4)" limit_operator== reported_result=5249
molecule="CC(C)C[C@H](NC(=O)[C@H](Cc1ccc(C#N)cc1)NC(=O)[C@@H]1CC=CC[C@H](N)C(=O)N[C@@H](CCCCN)C(=O)N[C@@H](CCCCN)C(=O)N1)C(=O)O [compound 118, c[G(All)KKG(All)]F(4-cyano)L] (H-[AllylGly]KK[AllylGly][Phe(4-CN)]L-OH; staple 1-4)" limit_operator=> reported_result=1729
molecule="NCCCC[C@@H]1NC(=O)CCC=CC[C@@H](C(=O)N[C@@H](Cc2ccc(O)cc2)C(=O)N[C@@H](CC2CCCC2)C(=O)O)NC(=O)[C@H](CCCCN)NC1=O [compound 129, c[pK(pentenoyl)KG(All)]Y A(cyclopentyl)]" limit_operator== reported_result=7194
molecule="CC(C)C[C@H](NC(=O)[C@H](Cc1ccc(C(=O)c2ccccc2)cc1)NC(=O)[C@@H]1CC=CC[C@H](N)C(=O)N[C@@H](CCCCN)C(=O)N[C@@H](CCCCN)C(=O)N1)C(=O)O [compound 160, c[G(All)KKG(All)]F (benzoyl)L] (H-[AllylGly]KK[AllylGly][Bpa]L-OH; staple 1-4)" limit_operator== reported_result=2
